Data origin, for the record: ChEMBL document CHEMBL1121978

# TEST_TARGET: Beta-1 adrenergic receptor (Canis lupus familiaris) (UniProt P79148)
In vivo duration strictly under 20 min means criterion met; at 20 min or over means criterion not met.

// query Please check: In vivo duration for COC(=O)CCc1ccc(OCC(O)CNC(C)C)cc1 (centres undefined) , strictly under 20 min or not?
// result criterion met

// query Take the compound COC(=O)CCCc1ccc(OCC(O)CNC(C)C)cc1 (centres undefined) and say whether its In vivo duration is less than 20 min.
// result criterion not met

// query Say whether its In vivo duration is strictly beneath 20 min. Entry: CC(=O)Nc1ccc(OCC(O)CNC(C)C)cc1 (centres undefined)
// result criterion not met

// query Is 20 min strictly greater than the compound's reported In vivo duration? compound: COC(=O)c1ccccc1OCC(O)CNC(C)(C)C (centres undefined)
// result criterion met

// query Answer whether the compound COC(=O)c1ccc(OCC(O)CNC(C)(C)C)cc1 (centres undefined) has In vivo duration strictly less than 20 min
// result criterion not met

// query Lab note: In vivo duration threshold 20 min. Does this compound come in strictly under it? COC(=O)c1ccc(OCC(O)CNC(C)C)cc1 (centres undefined)
// result criterion not met

// query Is In vivo duration of CCOC(=O)c1ccc(OCC(O)CNC(C)C)cc1 (centres undefined) strictly below 20 min?
// result criterion not met

// query # TODO verify In vivo duration < 20 min strictly for this compound: COC(=O)c1ccccc1OCC(O)CNC(C)C (centres undefined)
// result criterion met

====

Assign Cardio selectivity to each entry below.
# TEST_TARGET: Beta-1 adrenergic receptor (Cavia porcellus) (UniProt B0FL73)
# Sequence (B0FL73 1-467): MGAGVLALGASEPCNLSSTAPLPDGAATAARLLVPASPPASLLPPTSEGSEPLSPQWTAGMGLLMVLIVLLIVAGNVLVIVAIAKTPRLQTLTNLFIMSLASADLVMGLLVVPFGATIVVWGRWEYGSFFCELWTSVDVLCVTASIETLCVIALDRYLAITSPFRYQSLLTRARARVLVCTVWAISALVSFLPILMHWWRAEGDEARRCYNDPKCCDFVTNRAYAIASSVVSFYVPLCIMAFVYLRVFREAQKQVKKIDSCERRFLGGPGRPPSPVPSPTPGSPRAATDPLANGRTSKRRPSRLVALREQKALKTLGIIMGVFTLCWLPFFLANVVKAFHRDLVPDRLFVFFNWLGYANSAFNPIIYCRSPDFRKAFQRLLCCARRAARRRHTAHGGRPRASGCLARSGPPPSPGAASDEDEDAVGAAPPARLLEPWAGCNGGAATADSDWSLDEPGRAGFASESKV
# EXPERIMENTAL_PROTOCOL: Cardioselectivity expressed as antilog of pA2 (atria)-pA2 (trachea).

Illustrative cases are given below, each with its answer.
C=COC(=O)c1ccc(OCC(O)CNC(C)C)cc1 (stereo unspecified) : 5
COC(=O)CCc1ccc(OCC(O)CNCCCc2ccccc2)cc1 (stereo unspecified) : 20
CCOC(=O)CCc1ccc(OCC(O)CNC(C)C)cc1 (stereo unspecified) : 30
COC(=O)CCCc1ccc(OCC(O)CNC(C)C)cc1 (stereo unspecified) : 13
COC(=O)/C=C/c1ccc(OCC(O)CNC(C)C)cc1 (stereo unspecified) : 18

// query Find the measured Cardio selectivity of COC(=O)CCc1ccc(OCC(O)CNCCc2ccc(OC)c(OC)c2)cc1 (stereo unspecified) and report it.
// result 20

====

# TEST_TARGET: Beta-1 adrenergic receptor (Canis lupus familiaris) (UniProt P79148)
Rule: In vivo duration under 30 min gives Not satisfied, otherwise Satisfied.

CCOC(=O)c1ccccc1OCC(O)CNC(C)(C)C (stereo not drawn) : Satisfied
CCOC(=O)CCc1ccc(OCC(O)CNC(C)C)cc1 (stereo not drawn) : Satisfied
COC(=O)CCCc1ccc(OCC(O)CNC(C)C)cc1 (stereo not drawn) : Satisfied
COC(=O)c1ccccc1OCC(O)CNC(C)(C)C (stereo not drawn) : Not satisfied
COC(=O)c1ccccc1OCC(O)CNC(C)C (stereo not drawn) : Not satisfied

// query Please indicate if the recorded In vivo duration for COC(=O)c1ccccc1OCC(O)CNC(C)(C)CO (stereo not drawn) meets or exceeds 30 min.
// result Satisfied

// query hey, is In vivo duration for this one >= 30 min? COC(=O)CCc1ccc(OCC(O)CNCCc2ccc(OC)c(OC)c2)cc1 (stereo not drawn)
// result Not satisfied

// query Kindly determine if In vivo duration recorded for COC(=O)Cc1ccc(OCC(O)CNC(C)C)cc1 (stereo not drawn) is above or exactly 30 min.
// result Satisfied

====

I'd be grateful if you could share measured In vivo duration for these entries.
# TEST_TARGET: Beta-1 adrenergic receptor (Canis lupus familiaris)
Numbers only, in min.

The examples below pair each entry with its known result.
COC(=O)c1ccccc1OCC(O)CNCCc1ccc(OC)c(OC)c1 (stereo not given) : 30
COC(=O)CCc1ccc(OCC(O)CNC(C)(C)C)cc1 (stereo not given) : 15
COC(=O)CCc1ccccc1OCC(O)CNC(C)C (stereo not given) : 29

// query Dear colleague, please send me the reported In vivo duration for COC(=O)CCc1ccc(OCC(O)CNC(C)C)cc1 (stereo not given) when you can.
// result 12
